Ref: the supplement of paper PMC4862054

Test system: BT-474
Test: normalised response (% of control), CellTiter-Glo; higher = more viable cells (100 = DMSO, 0 = benzethonium chloride kill control)
Conditions: incubation time: 72 h
endpoint-label: normalised response (%)
Value expressed in %; do not type the unit.

response.value for CO[C@@]12[C@H](COC(N)=O)C3=C(C(=O)C(C)=C(N)C3=O)N1C[C@@H]1N[C@@H]12 [Mitomycin C] (1 nM) (field: normalised response) = 92.3

Lab note: measured normalised response of CCn1c(C(=O)N(C2CC2)C2CC2)cc2c3c(ncn3C)c(Nc3cc(C)n(C)n3)nc21 (10 nM) was 93.5

Reported normalised response ( CC(C)(C)c1nc(-c2cccc(NS(=O)(=O)c3c(F)cccc3F)c2F)c(-c2ccnc(N)n2)s1 [Dabrafenib] (2.5 nM) ) = 101

normalised response reported for this compound Nc1ccn([C@@H]2O[C@H](CO)[C@@H](O)C2(F)F)c(=O)n1 [Gemcitabine] (0.1 nM) : 97

compound CC(C)C[C@H](NC(=O)[C@@H](COC(C)(C)C)NC(=O)[C@H](Cc1ccc(O)cc1)NC(=O)[C@H](CO)NC(=O)[C@H](Cc1c[nH]c2ccccc12)NC(=O)[C@H](Cc1cnc[nH]1)NC(=O)[C@@H]1CCC(=O)N1)C(=O)N[C@@H](CCCNC(=N)N)C(=O)N1CCC[C@H]1C(=O)NNC(N)=O [Goserelin] (10 nM) , normalised response observed: 98

The reported normalised response of the compound CCN(CC)CCCC(C)Nc1ccnc2cc(Cl)ccc12 (stereo unspecified) [Chloroquine] (100 nM) was 99.9
